The reported measurements were obtained from patent US20220324835A1.

biological target: Cbl-b (Homo sapiens, UniProt Q13191); assay: Cbl-b inhibition assay (Cbl-b activity assay, FRET, Biological Example 1; 100 mM NaCl, 60 nM Src kinase); assay type: biochemical; conditions: upper bound stated in text lists; read-out: IC50 values in the Cbl-b inhibition assay of Biological Example 1
Sequence (Q13191 36-427): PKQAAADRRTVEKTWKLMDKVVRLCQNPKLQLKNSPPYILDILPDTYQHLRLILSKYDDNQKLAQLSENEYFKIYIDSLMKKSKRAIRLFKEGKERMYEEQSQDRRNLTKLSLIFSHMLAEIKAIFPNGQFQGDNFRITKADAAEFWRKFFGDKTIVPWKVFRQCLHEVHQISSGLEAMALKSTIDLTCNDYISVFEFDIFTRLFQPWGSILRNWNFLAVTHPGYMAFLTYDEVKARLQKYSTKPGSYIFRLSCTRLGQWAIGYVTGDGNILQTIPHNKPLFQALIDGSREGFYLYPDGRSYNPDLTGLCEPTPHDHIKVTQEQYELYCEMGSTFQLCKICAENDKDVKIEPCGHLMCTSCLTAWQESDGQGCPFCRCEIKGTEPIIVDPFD
Measured IC50, listed per entry.
reported property: IC50

[[record]]
compound = "C[C@H](O)CNC(=O)c1ccnc(C(=O)Nc2cccc([C@H](C)Sc3nncn3C)c2)c1"
readout_value = "≤ 10000 nM"

[[record]]
compound = "C[C@H](Sc1nncn1C)c1cccc(NC(=O)c2cc(C(F)(F)F)cc(C3CC3)n2)c1"
readout_value = "≤ 500 nM"

[[record]]
compound = "Cn1cnnc1CC1(c2cccc(N3Cc4c(cc(C(O)C(F)(F)F)cc4C(F)(F)F)C3=O)c2)COC1 (stereo not shown)"
readout_value = "≤ 100 nM"

[[record]]
compound = "Cn1cnnc1C[C@]1(c2cccc(N3Cc4c(cccc4C(F)(F)F)C3=O)c2)C[C@H](CO)C1"
readout_value = "≤ 300 nM"

[[record]]
compound = "CC(Sc1nncn1C)c1cc(F)cc(N2Cc3c(cccc3C(F)(F)F)C2=O)c1 (stereo not shown)"
readout_value = "≤ 500 nM"

[[record]]
compound = "C[C@H](Cc1nncn1C)c1cccc(NC(=O)c2cc(C(F)(F)F)ccn2)c1"
readout_value = "≤ 10000 nM"

[[record]]
compound = "CCOc1cc(N2Cc3c(cc(CN4CC[C@H](F)C4)cc3C(F)(F)F)C2=O)cc(C2(Cc3nncn3C)COC2)c1"
readout_value = "≤ 100 nM"

[[record]]
compound = "Cn1cnnc1[C@@H]1CC[C@@H]1c1cccc(N2Cc3c(cccc3C(F)(F)F)C2=O)c1 [Compound 283b]"
readout_value = "≤ 500 nM"

[[record]]
compound = "COC(Cc1nncn1C)c1cccc(N2Cc3c(cccc3C(F)(F)F)C2=O)c1 (stereo not shown)"
readout_value = "≤ 10000 nM"

[[record]]
compound = "C[C@H](Cc1nncn1C)c1cccc(NC(=O)c2cc(C(=O)N3CC(O)C(C)(C)C3)ccn2)c1 (stereo partly shown)"
readout_value = "≤ 10000 nM"

[[record]]
compound = "Cn1cnnc1CC1(c2cccc(NC(=O)c3csc(C4CC4)n3)c2)COC1"
readout_value = "≤ 300 nM"

[[record]]
compound = "C[C@H](Cc1nncn1C)c1cccc(N2Cc3c(ccnc3C3CCC3)C2=O)c1"
readout_value = "≤ 500 nM"

[[record]]
compound = "Cn1cnnc1CC1(c2cccc(N3Cc4c(cc(CN5CCc6cc(C#N)ccc6C5)cc4C(F)(F)F)C3=O)c2)COC1"
readout_value = "≤ 100 nM"

[[record]]
compound = "Cc1[nH]cnc1CC(C)c1cccc(N2Cc3c(cccc3C(F)(F)F)C2=O)c1 (stereo not shown)"
readout_value = "≤ 500 nM"

[[record]]
compound = "C[C@H](Sc1nncn1C)c1cccc(NC(=O)c2nc(C(F)(F)F)ccc2N)c1"
readout_value = "≤ 10000 nM"

[[record]]
compound = "Cc1ccc(C(=O)Nc2cccc([C@H](C)Cc3nnc[nH]3)c2)nc1C1CC1"
readout_value = "≤ 500 nM"

[[record]]
compound = "Cn1cnnc1CC1(c2cccc(NC(=O)c3ccnc4ccnn34)c2)COC1"
readout_value = "≤ 300 nM"

[[record]]
compound = "CCOc1cc([C@@](C)(F)C(F)(F)c2nncn2C)cc(NC(=O)c2cc(C)nc(C3CC3)n2)n1"
readout_value = "≤ 300 nM"

[[record]]
compound = "Cn1cnnc1CC1(c2cccc(N3Cc4c(cc(CN5Cc6cccc(F)c6C5)cc4C(F)(F)F)C3=O)c2)COC1"
readout_value = "≤ 100 nM"

[[record]]
compound = "Cn1cnnc1CC1(c2cccc(N3Cc4c(cc(CN5CCOC(CCF)C5)cc4C(F)(F)F)C3=O)c2)COC1 (stereo not shown)"
readout_value = "≤ 100 nM"

[[record]]
compound = "C[C@@H](Cc1nncn1C)c1cccc(NC(=O)c2cc(C(=O)N3CC[C@H](O)C3)cc(C3CC3)n2)c1"
readout_value = "≤ 1000 nM"

[[record]]
compound = "Cn1cnnc1CC1(c2cccc(N3Cc4c(cccc4C(F)(F)F)C3=O)c2)CC(F)(F)C1"
readout_value = "≤ 100 nM"

[[record]]
compound = "C[C@@H](c1cccc(N2Cc3c(cccc3C(F)(F)F)C2=O)c1)[C@H](F)c1nncn1C (relative stereo)"
readout_value = "≤ 500 nM"

[[record]]
compound = "C[C@@H](c1cccc(N2Cc3c(cccc3C(F)(F)F)C2=O)c1)C(F)(F)c1nncn1C [Compound 467a]"
readout_value = "≤ 300 nM"

[[record]]
compound = "COc1cc(C(=O)Nc2cccc([C@H](C)Cc3nncn3C)c2)nc(C(F)(F)F)c1"
readout_value = "≤ 1000 nM"

[[record]]
compound = "Cn1cnnc1CC(C)(C)c1cccc(NC(=O)c2cccc(C(F)(F)F)n2)c1"
readout_value = "≤ 100 nM"

[[record]]
compound = "C[C@H](Cc1nnc[nH]1)c1cccc(N2Cc3c(cccc3C(F)(F)F)C2=O)c1"
readout_value = "≤ 500 nM"

[[record]]
compound = "C[C@H](Cc1nncn1C)c1cccc(N2Cc3c(cc(CN4C[C@@H](F)[C@@H](O)C4)cc3C(F)(F)F)C2=O)c1"
readout_value = "≤ 100 nM"

[[record]]
compound = "Cn1cnnc1CC1(c2cccc(N3Cc4c(cc(CC5CNCCC5=O)cc4C(F)(F)F)C3=O)c2)COC1 (stereo not shown)"
readout_value = "≤ 100 nM"

[[record]]
compound = "CC(Sc1nncn1C)c1cc(NC(=O)c2ccc3ccccc3n2)c2c(c1)C(C)(O)CC2 (stereo not shown)"
readout_value = "≤ 10000 nM"

[[record]]
compound = "Cn1cnnc1CC(C)(C)c1cccc(NC(=O)c2ccnc(C(F)(F)F)n2)c1"
readout_value = "≤ 500 nM"

